biological target: recombinant cohesin (CipA of Clostridium josui, BAA32429) (Clostridium josui); assay: SPR (Biacore T-100), fusion captured via anti-JNK3 antibody on Protein A chip, cohesin as analyte, +Ca2+ (1 mM CaCl2), no EGTA
Ends that are not written are not given here.
Each record here notes measured Kd.

# annotated cases, reported Kd shown
{"binder": "recombinant JNK3 of which an I49G-substituted dockerin polypeptide is fused at the N-terminal (protein, not shown: large carriers; small tags and cut ends) MGLKGDVNNDGAIDALDIAALKKAILTQSTSNINLTNADMNNDGNIDAGDFAQLKVKLLN", "Kd": "2.2 nM"}
{"binder": "recombinant JNK3 of which an I49T-substituted dockerin polypeptide is fused at the N-terminal (protein, not shown: large carriers; small tags and cut ends) MGLKGDVNNDGAIDALDIAALKKAILTQSTSNINLTNADMNNDGNIDATDFAQLKVKLLN", "Kd": "3.8 nM"}
{"binder": "recombinant JNK3 of which an I49V-substituted dockerin polypeptide is fused at the N-terminal (protein, not shown: large carriers; small tags and cut ends) MGLKGDVNNDGAIDALDIAALKKAILTQSTSNINLTNADMNNDGNIDAVDFAQLKVKLLN", "Kd": "7.6 nM"}
{"binder": "recombinant JNK3 of which an I49N-substituted dockerin polypeptide was fused at the N-terminal (protein, not shown: large carriers; small tags and cut ends) MGLKGDVNNDGAIDALDIAALKKAILTQSTSNINLTNADMNNDGNIDANDFAQLKVKLLN", "Kd": "3.7 nM"}
{"binder": "recombinant JNK3 of which an I49S-substituted dockerin polypeptide is fused at the N-terminal (protein, not shown: large carriers; small tags and cut ends) MGLKGDVNNDGAIDALDIAALKKAILTQSTSNINLTNADMNNDGNIDASDFAQLKVKLLN", "Kd": "4.5 nM"}

Which Kd reading was recorded for the binder recombinant JNK3 of which an L16T/I49T-substituted dockerin polypeptide is fused at the N-terminal (protein, not shown: large carriers; small tags and cut ends) MGLKGDVNNDGAIDATDIAALKKAILTQSTSNINLTNADMNNDGNIDATDFAQLKVKLLN ? 3.2 nM

// query Kd value for entry recombinant JNK3 of which a wild-type dockerin was fused at the N-terminal (protein, not shown: large carriers; small tags and cut ends, not fully specified (C-terminus)) MGLKGDVNNDGAIDALDIAALKKAILTQSTSNINLTNADMNNDGNIDAIDFAQLKVKLLN 6.5 nM
